assay: Ascending multiple dose pharmacokinetics of enteric coated capsules in healthy subjects; format: in vivo, human; settings: human, plasma, po, 250 mg, healthy subjects, single oral dose 250 mg, day 1; read-out: Tmax (Mean)
measureName: Tmax (h)
Kindly answer with a numeric value in h, unit omitted.

Output measured Tmax for this item: Cl.c1cc2c3c(c1)[C@H]1CCC[C@H]1CN3CCNC2 [Compound A.HCl]
6

---

test: Ascending multiple dose pharmacokinetics of enteric coated capsules in healthy subjects; format: in vivo, human; conditions: human, plasma, po, 75 mg, healthy subjects, single oral dose 75 mg, day 1; read-out: AUC0-∞ (Geom. Mean)
measureName: AUC(0-inf) (ng·h/mL)
Give the value, in units of ng·h/mL, as a plain number.

Output measured AUC(0-inf) for this item: Cl.c1cc2c3c(c1)[C@H]1CCC[C@H]1CN3CCNC2 [Compound A.HCl]
16.8

---

assay: Ascending multiple dose pharmacokinetics of enteric coated capsules in schizophrenic patients; format: in vivo, human; details: human, plasma, po, 150 mg, Schizophrenia patients, multiple oral doses (q12 h) 150 mg, day 10; read-out: Cmax (Mean)
measureName: Cmax
Entry format: amount then unit.

// fetch Cmax given entry Cl.c1cc2c3c(c1)[C@H]1CCC[C@H]1CN3CCNC2 [Compound A.HCl]
7.21 ng/mL

---

Assay: Ascending multiple dose pharmacokinetics of enteric coated capsules in schizophrenic patients
Format: in vivo, human
Settings: human, plasma, po, 150 mg, Schizophrenia patients, multiple oral doses (q12 h) 150 mg, day 10; read-out: Tmax (Mean)
Procedure: Ascending multiple doses of 100, 150, and 250 mg Compound A.HCl were administered as twice-daily regimen (q12h) for 10 days in cohorts of 8 schizophrenic patients (6 active and 2 placebo). Blood samples for Compound A.HCl analysis were obtained on day 1 within 2 hours of test article administration and at various time points from 0.5 to 24 hours after test article administration. On day 10, blood samples were collected up to 12 hours after dose administration. […]
measureName: Tmax (h)
Your answer should be a plain number; it is taken to be in h.

Supply recorded Tmax for Cl.c1cc2c3c(c1)[C@H]1CCC[C@H]1CN3CCNC2 [Compound A.HCl] here.
4.3

---

Test: Ascending multiple dose pharmacokinetics of enteric coated capsules in healthy subjects
Type: in vivo, human
Settings: human, plasma, po, 250 mg, healthy subjects, single oral dose 250 mg, day 1; read-out: t1/2 (Geom. Mean) (converted)
Method: Ascending multiple doses of 25, 50, 75, 100, 150, and 250 mg Compound A.HCl were administered as twice-daily regimen (q12h) for 14 days in cohorts of 8 healthy subjects (6 active and 2 placebo). Blood samples for Compound A.HCl analysis were obtained on days 1 and 14 within 2 hours of test article administration and at various time points from 0.5 to 48 hours after test article administration. Doses were administered orally after an overnight fast of at least 10 hours on these 2 days. […]
measureName: half-life (h)
Write it as a number; the unit h goes unstated.

Answer with the recorded half-life of Cl.c1cc2c3c(c1)[C@H]1CCC[C@H]1CN3CCNC2 [Compound A.HCl] only.
9.91

---

test: Ascending multiple dose pharmacokinetics of enteric coated capsules in schizophrenic patients; assay type: in vivo, human; conditions: human, plasma, po, 100 mg, Schizophrenia patients, multiple oral doses (q12 h) 100 mg, day 10; read-out: Cmax (Mean)
measureName: Cmax (ng/mL)
Answer with a number only, understood to be in ng/mL.

Respond only with Cmax recorded for Cl.c1cc2c3c(c1)[C@H]1CCC[C@H]1CN3CCNC2 [Compound A.HCl]
4

All values here come from patent US20060110451A1.
